- Test system: Raji
- PROCEDURE_SUMMARY: Inhibition of 12-O-tetradecanoylphorbol-13-acetate-induced EBV-early antigen activation in human Raji cells assessed as EA activation at 0.32 nmol relative to 12-O-tetradecanoylphorbol-13-acetate
- Format: cell-based
- Design: scale not given: the % may be the effect or the level left
- REPORTED_CONDITIONS: human gammaherpesvirus 4
RESULT_TYPE: Activity (%)

1) COC(=O)c1cc(O)c2[nH]c3ccccc3c2c1CC=C(C)C :: 94.6
2) C=C(C)C1Cc2c(cc(O)c3[nH]c4ccccc4c23)C(=O)O1 (centres undefined) :: 95.5
3) COC(=O)c1ccc2[nH]c3ccccc3c2c1 :: 100
4) COc1cc(C=O)c(CC=C(C)C)c2c1[nH]c1ccccc12 :: 90.3
5) COC(=O)c1cc(OC)c2[nH]c3ccccc3c2c1CC=C(C)C :: 92.3
6) COc1cc2c(c3c1[nH]c1ccccc13)CC(C(C)(C)O)OC2=O (centres undefined) :: 92.3
7) COC(=O)c1cc(O)c2[nH]c3ccccc3c2c1 :: 100
8) C=C(C)C1Cc2c(cc(OC)c3[nH]c4ccccc4c23)C(=O)O1 (centres undefined) :: 100
9) O=Cc1cc(O)c2[nH]c3ccccc3c2c1 :: 100

// provenance: ChEMBL document CHEMBL1155664
